procedureText: gradient 5% acetonitrile 3 min, to 50% in 2 min, to 85% in 15 min, held 3 min, 100 µL/min
studyConditions: column: Zorbax Extend-C18 2.1 x 50 mm; eluents: water / acetonitrile, 0.1% formic acid
measuredQuantity: RP-LC retention time (s)

1. CCCn1c(=O)c(C)nc2cc(-c3noc(-c4cccc(N(C)C)c4)n3)ccc21; 717
2. Cc1ccc(CCNC(=O)C2CCCN(c3nnc(C)c4c(C)n(-c5ccccc5)nc34)C2)cc1 (stereo not given); 762
3. O=C(NCc1ccccc1F)C1CCCN(c2nccnc2Sc2ccccc2)C1 (stereo not given); 1050
4. COc1ccc(NC(=O)Cn2c(=O)n(-c3ccccc3)c3ncccc32)c(OC)c1; 808
5. CCn1c(=O)n(CC(=O)NC(C)C)c(=O)c2cnc(-c3ccccc3)nc21; 863
